biological target: SMARCA4-HiBiT HeLa cells (protein which is expressed from the SMARCA4 gene) (Homo sapiens, UniProt P51532); construct: protein which is expressed from the SMARCA2 and SMARCA4 genes; host or cells: HeLa (SMARCA4-HiBiT engineered line); experiment: SMARCA4 degradation assay (HiBiT-fusion HeLa cell line, 24 h, luminescence); format: cell-based
Sequence (P51532 whole entry, the tested form may be a part): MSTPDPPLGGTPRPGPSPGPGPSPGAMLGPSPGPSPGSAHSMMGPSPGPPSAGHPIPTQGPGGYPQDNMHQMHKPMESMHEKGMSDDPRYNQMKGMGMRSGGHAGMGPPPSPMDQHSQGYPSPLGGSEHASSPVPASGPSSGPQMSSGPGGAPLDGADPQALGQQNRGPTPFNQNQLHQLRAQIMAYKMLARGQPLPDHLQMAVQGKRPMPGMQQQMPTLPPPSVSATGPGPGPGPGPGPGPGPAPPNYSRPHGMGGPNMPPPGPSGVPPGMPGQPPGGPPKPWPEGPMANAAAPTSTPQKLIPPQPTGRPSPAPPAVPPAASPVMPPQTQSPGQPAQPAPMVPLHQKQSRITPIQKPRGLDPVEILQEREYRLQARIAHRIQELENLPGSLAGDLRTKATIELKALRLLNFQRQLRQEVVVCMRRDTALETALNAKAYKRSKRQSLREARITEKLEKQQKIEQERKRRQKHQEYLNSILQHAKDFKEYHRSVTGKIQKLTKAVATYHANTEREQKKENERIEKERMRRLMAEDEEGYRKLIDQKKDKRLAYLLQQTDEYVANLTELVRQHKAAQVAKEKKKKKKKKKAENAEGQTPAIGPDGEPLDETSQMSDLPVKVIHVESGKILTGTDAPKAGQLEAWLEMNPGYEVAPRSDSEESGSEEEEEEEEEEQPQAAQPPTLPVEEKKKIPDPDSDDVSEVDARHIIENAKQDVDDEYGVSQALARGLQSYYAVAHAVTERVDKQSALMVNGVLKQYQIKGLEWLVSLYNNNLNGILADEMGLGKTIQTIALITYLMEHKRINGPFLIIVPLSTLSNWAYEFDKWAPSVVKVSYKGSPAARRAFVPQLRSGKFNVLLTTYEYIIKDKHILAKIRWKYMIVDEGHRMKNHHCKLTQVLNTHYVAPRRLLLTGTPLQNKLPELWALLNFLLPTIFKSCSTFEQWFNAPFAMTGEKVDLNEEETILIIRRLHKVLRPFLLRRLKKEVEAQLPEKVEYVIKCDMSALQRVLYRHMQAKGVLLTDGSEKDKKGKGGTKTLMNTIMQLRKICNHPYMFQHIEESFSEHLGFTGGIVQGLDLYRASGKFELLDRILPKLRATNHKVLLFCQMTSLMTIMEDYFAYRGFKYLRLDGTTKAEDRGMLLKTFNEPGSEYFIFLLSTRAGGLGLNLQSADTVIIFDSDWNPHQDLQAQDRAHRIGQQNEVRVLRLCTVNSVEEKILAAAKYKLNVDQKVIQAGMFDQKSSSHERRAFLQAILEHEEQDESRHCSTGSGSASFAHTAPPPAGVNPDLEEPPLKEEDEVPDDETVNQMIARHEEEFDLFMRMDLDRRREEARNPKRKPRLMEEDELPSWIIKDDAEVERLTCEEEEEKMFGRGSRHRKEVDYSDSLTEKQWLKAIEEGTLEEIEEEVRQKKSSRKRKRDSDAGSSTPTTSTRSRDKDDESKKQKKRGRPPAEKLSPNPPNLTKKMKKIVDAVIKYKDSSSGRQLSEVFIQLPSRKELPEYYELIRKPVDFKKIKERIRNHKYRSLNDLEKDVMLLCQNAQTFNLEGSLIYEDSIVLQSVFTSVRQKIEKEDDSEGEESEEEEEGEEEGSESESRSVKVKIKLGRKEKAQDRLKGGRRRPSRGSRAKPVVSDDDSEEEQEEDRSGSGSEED
Recorded DC50, one value per entry.

>  <Smiles input>
C[C@H]1CCN1CC#Cc1nccc(N2CCCN(c3cc(-c4ccccc4O)nnc3N)CC2)n1

>  <DC50>
50 to 500 nM

$$$$
>  <Smiles input>
Nc1nnc(-c2ccccc2O)cc1N1CCCN(c2ccnc(C#CCNc3ncco3)n2)CC1

>  <DC50>
500 to 5000 nM

$$$$
>  <Smiles input>
C[C@@H]1CCN(c2cc(-c3ccccc3O)nnc2N)CCN1c1ccnc(C#CC2CN(C)C2)n1

>  <DC50>
50 to 500 nM

$$$$

// DC50 lookup, key: "CC(C)(C)OC(=O)N1Cc2cn(CC#Cc3nccc(N4CCCN(c5cc(-c6ccccc6O)nnc5N)CC4)n3)nc2C1"
< 50 nM

// DC50 lookup, key: "Nc1nnc(-c2ccccc2O)cc1N1CCCN(c2ccnc(C#CCNc3cc4ncccn4n3)n2)CC1"
500 to 5000 nM

// DC50 lookup, key: "Nc1nnc(-c2ccccc2O)cc1N1CCCN(c2ccnc(C#CCNC(=O)c3cc4ncccn4n3)n2)CC1"
50 to 500 nM

// DC50 lookup, key: "CN(C)CC#Cc1nccc(N2C3CCC2CN(c2cc(-c4ccccc4O)nnc2N)C3)n1"
< 50 nM

// DC50 lookup, key: "Cn1cc(C#Cc2nccc(N3CCCN(c4cc(-c5ccccc5O)nnc4N)CC3)n2)cn1"
500 to 5000 nM

// DC50 lookup, key: "C[C@H]1CN(c2ccnc(C#CCn3cccn3)n2)CCN1c1cc(-c2ccccc2O)nnc1N"
50 to 500 nM

// DC50 lookup, key: "COC1CN(CC#Cc2nccc(N3CCCN(c4cc(-c5ccccc5O)nnc4N)CC3)n2)C1"
50 to 500 nM

// DC50 lookup, key: "Nc1nnc(-c2ccccc2O)cc1N1CCN(c2ccnc(C#CCNC(=O)c3cc4ccccc4[nH]3)n2)CC1"
50 to 500 nM

Source listed as patent US20260265238A1.
